Target: NSP14 (Severe acute respiratory syndrome coronavirus 2)
Assay: NSP14 MTase inhibition assay at 37° C. (MTase-Glo SAH detection)
Format: biochemical, SARS-CoV-2
Settings: 37° C., 0.3 nM NSP14, 2.5 μM SAM, 2.5 μM GpppA RNA; read-out: Nsp14 Mtase Inh. IC50
RECORDED ENDPOINT: IC50 (nM)
State just the number; it will be interpreted in nM.

SMILES ENTRY | VALUE UNITS | READOUT VALUE
Cc1c(S(=O)(=O)c2ccc3[nH]ncc3c2)cc(C(=O)NCc2cccc3c2N(C)C(=O)C32CC2)n1C | nM | 0.18
Cc1c(S(=O)(=O)c2ccc3[nH]ncc3c2)cc(C(=O)NCc2c(F)cccc2OCCN(C)C)n1C | nM | 2

Exercise: Consider the compound shown here: "Cc1[nH]c(=O)c2ccccc2c1CNC(=O)c1cc(S(=O)(=O)c2ccc3[nH]nc(F)c3c2)c(C)n1C" What is its recorded IC50?
Key: 0.36

Exercise: Now this one: "Cc1c(S(=O)(=O)c2cc(F)c3[nH]ncc3c2)cc(C(=O)NCc2cccc(CN3CCCC3)c2)n1C"
Key: 41

Exercise: "Cc1c(S(=O)(=O)c2cccc(C#N)c2)cc(C(=O)NCc2c(F)ccc3cnn(C)c23)n1C" ?
Key: 0.61

Exercise: Do the same for "Cc1cc(CNC(=O)c2cc(S(=O)(=O)c3ccc4[nH]ncc4c3)c(C)n2C)n(C)n1" please
Key: 145

Exercise: Okay, and "Cc1c(S(=O)(=O)c2ccc3[nH]ncc3c2)cc(C(=O)NCc2nccc3ncn(C4CC4)c23)n1C" ?
Key: 0.18

* * *

Target: NSP14 (Severe acute respiratory syndrome coronavirus 2)
Assay: NSP14 MTase inhibition assay at 37° C. (MTase-Glo SAH detection)
Format: biochemical, SARS-CoV-2
Settings: 0.3 nM NSP14, 2.5 μM SAM, 2.5 μM GpppA RNA, 45 min at 37° C.; read-out: Nsp14 Mtase Inh. IC50
RECORDED ENDPOINT: IC50 (µM)
Kindly provide the numeric value in µM only, without the unit symbol.

Exercise: Tell me reported IC50 for Cc1c(S(=O)(=O)c2ccc(C(C)O)cc2)cc(C(=O)NCc2cccc3cnn(C)c23)n1C (stereo not shown) , tested with NSP14 (Severe acute respiratory syndrome coronavirus 2).
Key: 0.389

Exercise: Then "Cc1c(S(=O)(=O)c2ccc(C#N)cc2)cc(C(=O)NCc2cccc3cnn(C)c23)n1C" ?
Key: 0.089

Exercise: Same lookup for "Cc1c(S(=O)(=O)c2cc(C#N)c3[nH]ncc3c2)cc(C(=O)N[C@@H]2CCN(c3ncc(F)cn3)C2)n1C" , please.
Key: 0.00046

* * *

Target: UniProt P0DTD1
Experiment: NSP14 MTase inhibition assay at 37° C. (MTase-Glo SAH detection)
Assay type: biochemical, SARS-CoV-2
Details: 37° C., 0.3 nM NSP14, 2.5 μM SAM, 2.5 μM GpppA RNA; read-out: Nsp14 Mtase Inh. IC50
Measured log10(IC50), listed per entry for reference.
# values: log10(IC50), units nM

MOLECULE | READOUT VALUE
Cc1c(S(=O)(=O)c2ccc3ccc(C#N)cc3c2)cc(C(=O)NCc2c(F)ccc3cnn(C)c23)n1C | -0.03
Cc1nn(C)cc1CNC(=O)c1cc(S(=O)(=O)c2ccc3[nH]ncc3c2)c(C)n1C | 1.30
Cc1c(S(=O)(=O)c2ccc3[nH]ncc3c2)cc(C(=O)NCc2ncccc2C(F)(F)F)n1C | 0.72
Cc1c(S(=O)(=O)c2ccc3[nH]ncc3c2)cc(C(=O)NCc2cncn2C)n1C | 1.46

Exercise: Using the record for "Cc1c(S(=O)(=O)c2ccc3[nH]nc(F)c3c2)cc(C(=O)NC(c2ccccc2)c2ccccc2)n1C" , report its log10(IC50).
Key: 2.03

Exercise: What do you get for Cc1c(S(=O)(=O)c2ccc3[nH]ncc3c2)cc(C(=O)N[C@H](C)c2c(F)cccc2F)n1C (single isomer, unassigned) [B.64] ?
Key: 0.60

* * *

Reported IC50 is given for each of the following molecules.
Target: NSP14 (Severe acute respiratory syndrome coronavirus 2, UniProt P0DTD1)
Experiment: NSP14 MTase inhibition assay at 37° C. (MTase-Glo SAH detection)
Assay type: biochemical, SARS-CoV-2
Settings: 0.3 nM NSP14, 2.5 μM SAM, 2.5 μM GpppA RNA, 45 min at 37° C.; read-out: Nsp14 Mtase Inh. IC50
Report the value in µM with no unit label.

MOLECULE | VALUE UNITS | READOUT VALUE
Cc1c(S(=O)(=O)c2ccc3[nH]ncc3c2)cc(C(=O)N[C@H]2CN(c3ncc(F)cn3)C[C@H]2F)n1C [A.48] | µM | 0.033

Exercise: What does the data say about its IC50? Entry: Cc1c(S(=O)(=O)c2cnc3c(cnn3C)c2)cc(C(=O)NCc2cccc3cnn(C)c23)n1C [A.29]
Key: 0.16

Exercise: Same question, Cc1c(S(=O)(=O)c2ccc3[nH]ncc3c2)cc(C(=O)N[C@H]2CCN(c3ncc(F)cn3)C2)n1C [A.47] this time
Key: 0.0022

Exercise: Now consider Cc1c(S(=O)(=O)c2ccc3[nH]ncc3c2)cc(C(=O)N[C@H]2C[C@@H](Nc3ncc(F)cn3)C2)n1C [A.97] .
Key: 0.013

* * *

Here the recorded pIC50 is given for each entry.
Target: NSP14 (Severe acute respiratory syndrome coronavirus 2, UniProt P0DTD1)
Experiment: NSP14 MTase inhibition assay at 37° C. (MTase-Glo SAH detection)
Assay type: biochemical, SARS-CoV-2
Settings: 37° C., 0.3 nM NSP14, 2.5 μM SAM, 2.5 μM GpppA RNA; read-out: Nsp14 Mtase Inh. IC50
Hey, just a heads up that pIC50 is the negative log base 10 of the concentration in molar.

Consider the following illustrative entries.
COMPOUND | pIC50
Cc1c(S(=O)(=O)c2ccc3[nH]ncc3c2)cc(C(=O)NCc2c[nH]c(=O)c3ncccc23)n1C [B.155] | 9.52
Cc1c(S(=O)(=O)c2ccc3c(c2)CNC3)cc(C(=O)NCc2cccc3cnn(C)c23)n1C [B.10] | 6.95
Cc1c(S(=O)(=O)c2ccc3[nH]ncc3c2)cc(C(=O)NCc2ccnn2C)n1C [B.100] | 7.92
Cc1c(S(=O)(=O)c2ccc3[nH]nc(F)c3c2)cc(C(=O)NCc2cncnc2N2CCC(F)(F)C2)n1C [B.38] | 9.25
Cc1c(S(=O)(=O)c2ccc3[nH]ncc3c2)cc(C(=O)NC2CCc3ccc(C(F)(F)F)cc32)n1C (racemic) [B.72] | 7.48

Exercise: Returns the measured pIC50 for the input compound. Input: Cc1cc(C)c(CNC(=O)c2cc(S(=O)(=O)c3ccc4[nH]ncc4c3)c(C)n2C)c(=O)[nH]1 [B.161]
Key: 8.57

Exercise: Let us now turn to Cc1c(S(=O)(=O)c2ccc3[nH]ncc3c2)cc(C(=O)NCc2ccc(=O)n(C)n2)n1C [B.133]
Key: 8.12

Exercise: Try Cc1c(S(=O)(=O)c2ccc3[nH]ncc3c2)cc(C(=O)NCc2c(F)ccc3c2N(C)C(=O)C3(C)C)n1C [B.119] next.
Key: 9.68

Exercise: Can you check Cc1c(S(=O)(=O)c2ccc3[nH]ncc3c2)cc(C(=O)NCc2cc(F)cc3cn(C)nc23)n1C [B.97] next?
Key: 7.96

Exercise: Same thing, different compound: Cc1c(S(=O)(=O)c2ccc3c(=O)[nH]cnc3c2)cc(C(=O)NCc2cccc3cnn(C)c23)n1C [B.8]
Key: 7.15

Exercise: Same thing, different compound: Cc1c(S(=O)(=O)c2ccc3[nH]ncc3c2)cc(C(=O)NCc2c(F)cc[nH]c2=O)n1C [B.113]
Key: 9.47

Exercise: Proceed to Cc1c(S(=O)(=O)c2ccc3[nH]ncc3c2)cc(C(=O)NCc2ccc(=O)n(C)c2)n1C [B.177]
Key: 6.86

Exercise: Cc1c(S(=O)(=O)c2ccc3[nH]ncc3c2)cc(C(=O)NCc2cnc3ccccn23)n1C [B.138] ?
Key: 8.20

Exercise: Please give the result for Cc1c(S(=O)(=O)c2ccc3[nH]ncc3c2)cc(C(=O)NCc2c(Cl)cnn2C)n1C [B.142] too.
Key: 8.85

Exercise: Query Cc1c(S(=O)(=O)c2cc(F)c3[nH]ncc3c2)cc(C(=O)NCc2c(F)ccc3cnn(C4CC4)c23)n1CCO [B.89] next
Key: 10.00

* * *

Biological target: NSP14 (Severe acute respiratory syndrome coronavirus 2, UniProt P0DTD1)
Assay: NSP14 MTase inhibition assay at 37° C. (MTase-Glo SAH detection)
Format: biochemical, SARS-CoV-2
Conditions: 0.3 nM NSP14, 2.5 μM SAM, 2.5 μM GpppA RNA, 45 min at 37° C.; read-out: Nsp14 Mtase Inh. IC50
RECORDED ENDPOINT: pIC50
Convention used: pIC50 is expressed as -log10 of the molar concentration.

Example entries begin here.
COMPOUND | pIC50
Cc1c(S(=O)(=O)c2ccc3[nH]ncc3c2)cc(C(=O)N[C@@H]2CCN(c3cccc(C(F)F)c3)C2)n1C [A.86] | 8.60
Cc1c(S(=O)(=O)c2ccc3[nH]ncc3c2)cc(C(=O)N[C@@H]2CCN(c3cc(F)cc(F)c3)C2)n1C [A.96] | 9.07
Cc1c(S(=O)(=O)c2ccc3[nH]ncc3c2)cc(C(=O)N[C@@H]2CCN(c3ccc(C#N)cc3)C2)n1C [A.57] | 9.24
Cc1c(S(=O)(=O)c2ccc3[nH]ncc3c2)cc(C(=O)N[C@@H]2CCN(c3ccc(C#N)cn3)C2)n1C [A.72] | 9.54
Cc1c(S(=O)(=O)c2ccc3[nH]ncc3c2)cc(C(=O)N[C@@H]2CCN(c3ccnc(C(F)F)c3)C2)n1C [A.107] | 9.77
Cc1c(S(=O)(=O)c2ccc3nn[nH]c3c2)cc(C(=O)NCc2c(F)ccc3occc23)n1C [A.31] | 6.50

Now for another entry.
Exercise: Write down the reported pIC50 of Cc1c(S(=O)(=O)c2ccccc2)cc(C(=O)NCc2c(F)ccc3cnn(C)c23)n1C [A.7] , test system: NSP14 (Severe acute respiratory syndrome coronavirus 2, UniProt P0DTD1).
Key: 8.77
